Test system: HeLa Kyoto
Experiment: solubility change mitosis vs G1/S (difference of NP-40 vs SDS log2 ratios) (log2 ratio difference); higher = more soluble in mitosis
Listed sequences paired with reported solubility change mitosis (log2)

MGKRDNRVAYMNPIAMARSRGPIQSSGPTIQDYLNRPRPTWEEVKEQLEKKKKGSKALAEFEEKMNENWKKELEKHREKLLSGSESSSKKRQRKKKEKKKSGRYSSSSSSSSDSSSSSSDSEDEDKKQGKRRKKKKNRSHKSSESSMSETESDSKDSLKKKKKSKDGTEKEKDIKGLSKKRKMYSEDKPLSSESLSESEYIEEVRAKKKKSSEEREKATEKTKKKKKHKKHSKKKKKKAASSSPDSP [FAM133B]    0.889

For the next question, use this sequence.
Please report solubility change mitosis (log2) for the following sequence: MPGGLLLGDVAPNFEANTTVGRIRFHDFLGDSWGILFSHPRDFTPVCTTELGRAAKLAPEFAKRNVKLIALSIDSVEDHLAWSKDINAYNCEEPTEKLPFPIIDDRNRELAILLGMLDPAEKDEKGMPVTARVVFVFGPDKKLKLSILYPATTGRNFDEILRVVISLQLTAEKRVATPVDWKDGDSVMVLPTIPEEEAKKLFPKGVFTKELPSGKKYLRYTPQP [PRDX6]
0.118

* * *

System: HeLa Kyoto
Assay: solubility change mitosis vs G1/S (difference of NP-40 vs SDS log2 ratios) (log2 ratio difference); higher = more soluble in mitosis
# solubility change mitosis (log2) per record follows
Keep it simple and answer with nothing but the number.

# annotated cases, reported solubility change mitosis (log2) shown
MVAMAAGPSGCLVPAFGLRLLLATVLQAVSAFGAEFSSEACRELGFSSNLLCSSCDLLGQFNLLQLDPDCRGCCQEEAQFETKKLYAGAILEVCGUKLGRFPQVQAFVRSDKPKLFRGLQIKYVRGSDPVLKLLDDNGNIAEELSILKWNTDSVEEFLSEKLERI [SEP15]    -0.028
MGNCCWTQCFGLLRKEAGRLQRVGGGGGSKYFRTCSRGEHLTIEFENLVESDEGESPGSSHRPLTEEEIVDLRERHYDSIAEKQKDLDKKIQKELALQEEKLRLEEEALYAAQREAARAAKQRKLLEQERQRIVQQYHPSNNGEYQSSGPEDDFESCLRNMKSQYEVFRSSRLSSDATVLTPNTESSCDLMTKTKSTSGNDDSTSLDLEWEDEEGMNRMLPMRERSKTEEDILRAALKYSNKKTGSNPTSASDDSNGLEWENDFVSAEMDDNGNSEYSGFVNPVLELSDSGIRHSDTDQQTR [AP1AR]    -0.24
MNHSERFVFIAEWYDPNASLLRRYELLFYPGDGSVEMHDVKNHRTFLKRTKYDNLHLEDLFIGNKVNVFSRQLVLIDYGDQYTARQLGSRKEKTLALIKPDAISKAGEIIEIINKAGFTITKLKMMMLSRKEALDFHVDHQSRPFFNELIQFITTGPIIAMEILRDDAICEWKRLLGPANSGVARTDASESIRALFGTDGIRNAAHGPDSFASAAREMELFFPSSGGCGPANTAKFTNCTCCIVKPHAVSEGLLGKILMAIRDAGFEISAMQMFNMDRVNVEEFYEVYKGVVTEYHDMVTEMYSGPCVAMEIQQNNATKTFREFCGPADPEIARHLRPGTLRAIFGKTKIQNAVHCTDLPEDGLLEVQYFFKILDN [NME7]    0.0736
MDLSGVKKKSLLGVKENNKKSSTRAPSPTKRKDRSDEKSKDRSKDKGATKESSEKDRGRDKTRKRRSASSGSSSTRSRSSSTSSSGSSTSTGSSSGSSSSSASSRSGSSSTSRSSSSSSSSGSPSPSRRRHDNRRRSRSKSKPPKRDEKERKRRSPSPKPTKVHIGRLTRNVTKDHIMEIFSTYGKIKMIDMPVERMHPHLSKGYAYVEFENPDEAEKALKHMDGGQIDGQEITATAVLAPWPRPPPRRFSPPRRMLPPPPMWRRSPPRMRRRSRSPRRRSPVRRRSRSPGRRRHRSRSSSNSSR [RNPS1]    0.52
MMKKKKFKFKVDFELEELSSVPFVNGVLFCKMRLLDGGSFTAESSREVVQANCVRWRKKFSFMCKMSASAATGILDPCIYRVSVRKELKGGKAYAKLGFADLNLAEFAGSGNTTRRCLLEGYDTKNTRQDNSILKVLISMQLMSGDPCFKTPPSTSMSIPIAGESESLQEDRKGGETLKVHLGIADLSAKSASVPDELGACGHSRTSSYASQQSKVSGYSTCHSRSSSFSELCHRRNTSVGSTSTGVESILEPCDEIEQKIAEPNLDTADKEDTASEKLSRCPVKQDSVESQLKRVDDTRVDADDIVEKILQSQDFSLDSSAEEEGLRLFVGPGGSTTFGSHHLPNRVGSGAYEQVVIKR [FAM102B]    0.0662
MDWLMGKSKAKPNGKKPAAEERKAYLEPEHTKARITDFQFKELVVLPREIDLNEWLASNTTTFFHHINLQYSTISEFCTGETCQTMAVCNTQYYWYDERGKKVKCTAPQYVDFVMSSVQKLVTDEDVFPTKYGREFPSSFESLVRKICRHLFHVLAHIYWAHFKETLALELHGHLNTLYVHFILFAREFNLLDPKETAIMDDLTEVLCSGAGGVHSGGSGDGAGSGGPGAQNHVKER [MOB2]    0.0638

Give me measured solubility change mitosis (log2), please, for this sequence: MADFLPSRSVLSVCFPGCLLTSGEAEQQRKSKEIDKCLSREKTYVKRLVKILLLGAGESGKSTFLKQMRIIHGQDFDQRAREEFRPTIYSNVIKGMRVLVDAREKLHIPWGDNSNQQHGDKMMSFDTRAPMAAQGMVETRVFLQYLPAIRALWADSGIQNAYDRRREFQLGESVKYFLDNLDKLGEPDYIPSQQDILLARRPTKGIHEYDFEIKNVPFKMVDVGGQRSERKRWFECFDSVTSILFLVSSSEFDQVLMEDRLTNRLTESLNIFETIVNNRVFSNVSIILFLNKTDLLEEKVQIVSIKDYFLEFEGDPHCLRDVQKFLVECFRNKRRDQQQKPLYHHFTTAINTENIRLVFRDVKDTILHDNLKQLMLQ [GNA13]
-0.27

Indicate the recorded solubility change mitosis (log2) value for this sequence: MVTEQEVDAIGQTLVDPKQPLQARFRALFTLRGLGGPGAIAWISQAFDDDSALLKHELAYCLGQMQDARAIPMLVDVLQDTRQEPMVRHEAGEALGAIGDPEVLEILKQYSSDPVIEVAETCQLAVRRLEWLQQHGGEPAAGPYLSVDPAPPAEERDVGRLREALLDESRPLFERYRAMFALRNAGGEEAALALAEGLHCGSALFRHEVGYVLGQLQHEAAVPQLAAALARCTENPMVRHECAEALGAIARPACLAALQAHADDPERVVRESCEVALDMYEHETGRAFQYADGLEQLRGAPS [DOHH]
0.308

Please supply the value of reported solubility change mitosis (log2) for the item MSRGPSSAVLPSALGSRKLGPRSLSCLSDLDGGVALEPRACRPPGSPGRAPPPTPAPSGCDPRLRPIILRRARSLPSSPERRQKAAGAPGAACRPGCSQKLRVRFADALGLELAQVKVFNAGDDPSVPLHVLSRLAINSDLCCSSQDLEFTLHCLVPDFPPPVEAADFGERLQRQLVCLERVTCSDLGISGTVRVCNVAFEKQVAVRYTFSGWRSTHEAVARWRGPAGPEGTEDVFTFGFPVPPFLLELGSRVHFAVRYQVAGAEYWDNNDHRDYSLTCRNHALHMPRGECEESWIHFI [PPP1R3D]
-0.164

* * *

Property: solubility in G1/S (log2); scope: individual sequences
Test system: HeLa Kyoto
Experiment: solubility in G1/S (NP-40 vs SDS abundance) (log2 ratio); higher = more soluble
Details: cell cycle stage: G1/S
Reply with the value as a number alone.

Sample records with solubility in G1/S (log2):
MASAGDTQAGPRDAADQNFDYMFKLLLIGNSSVGKTSFLFRYADDSFTPAFVSTVGIDFKVKTVYRHDKRIKLQIWDTAGQERYRTITTAYYRGAMGFLLMYDIANQESFAAVQDWATQIKTYSWDNAQVILVGNKCDLEDERVVPAEDGRRLADDLGFEFFEASAKENINVKQVFERLVDVICEKMNESLEPSSSSGSNGKGPAVGDAPAPQPSSCSC [RAB3D]    0.0512
MEPLAAYPLKCSGPRAKVFAVLLSIVLCTVTLFLLQLKFLKPKINSFYAFEVKDAKGRTVSLEKYKGKVSLVVNVASDCQLTDRNYLGLKELHKEFGPSHFSVLAFPCNQFGESEPRPSKEVESFARKNYGVTFPIFHKIKILGSEGEPAFRFLVDSSKKEPRWNFWKYLVNPEGQVVKFWKPEEPIEVIRPDIAALVRQVIIKKKEDL [GPX8]    0.0659

Tell me solubility in G1/S (log2) reported for MCDQQKQPQFPPSCVKGSGLGAGQGSNGASVKCPVPCQTQTVCVTGPAPCPTQTYVKYQVPCQTQTYVKCPAPCQRTYVKYPTPCQTYVKCPAPCQTTYVKCPTPCQTYVKCPAPCQMTYIKSPAPCQTQTCYVQGASPCQSYYVQAPASGSTSQYCVTDPCSAPCSTSYCCLAPRTFGVSPLRRWIQRPQNCNTGSSGCCENSGSSGCCGSGGCGCSCGCGSSGCCCLGIIPMRSRGPACCDHEDDCCC [XP32]
-1.33

Return reported solubility in G1/S (log2). Input sequence: MPFDFRRFDIYRKVPKDLTQPTYTGAIISICCCLFILFLFLSELTGFITTEVVNELYVDDPDKDSGGKIDVSLNISLPNLHCELVGLDIQDEMGRHEVGHIDNSMKIPLNNGAGCRFEGQFSINKVPGNFHVSTHSATAQPQNPDMTHVIHKLSFGDTLQVQNIHGAFNALGGADRLTSNPLASHDYILKIVPTVYEDKSGKQRYSYQYTVANKEYVAYSHTGRIIPAIWFRYDLSPITVKYTERRQPLYRFITTICAIIGGTFTVAGILDSCIFTASEAWKKIQLGKMH [ERGIC1]
0.18

State, in one line, measured solubility in G1/S (log2) of MDRFVWTSGLLEINETLVIQQRGVRIYDGEEKIKFDAGTLLLSTHRLIWRDQKNHECCMAILLSQIVFIEEQAAGIGKSAKIVVHLHPAPPNKEPGPFQSSKNSYIKLSFKEHGQIEFYRRLSEEMTQRRWENMPVSQSLQTNRGPQPGRIRAVGIVGIERKLEEKRKETDKNISEAFEDLSKLMIKAKEMVELSKSIANKIKDKQGDITEDETIRFKSYLLSMGIANPVTRETYGSGTQYHMQLAKQLAGILQVPLEERGGIMSLTEVYCLVNRARGMELLSPEDLVNACKMLEALKLPLRLRVFDSGVMVIELQSHKEEEMVASALETVSEKGSLTSEEFAKLVGMSVLLAKERLLLAEKMGHLCRDDSVEGLRFYPNLFMTQS [VPS36]
-0.823

Origin of the recorded values: the supplement of paper PMC5998384
